The reported numbers originate from patent US20240376189A1.

Listed next: entries and their corresponding koff.
System Tested: T1, cynomolgus antigen (cynomolgus)
T1 construct: also called cyno antigen; cynomolgus monkey C5a
Test Name: SPR, scFv captured via anti-c-myc/anti-His, 60 nM cynomolgus antigen as analyte, 1:1 fit
Note to self: number, then unit, no commentary.

Worked cases, answers included:
2H8E10 (scFv, V domains shown, Combination mutant scFv) VH: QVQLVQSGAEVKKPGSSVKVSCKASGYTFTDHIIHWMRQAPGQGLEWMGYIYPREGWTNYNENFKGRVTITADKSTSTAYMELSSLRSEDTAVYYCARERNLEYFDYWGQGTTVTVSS VL: DIVLTQSPASLAVSPGQRATITCKASQSVDYEGDNYMNWYQQKPGQPPKLLIYAASNLDSGVPARFSGSGSGTDFTLTINPVEAEDTANYYCQQSNEDPHTFGGGTKVEIK
0.00258 s⁻¹
19D2 (scFv, V domains shown, Combination mutant scFv) VH: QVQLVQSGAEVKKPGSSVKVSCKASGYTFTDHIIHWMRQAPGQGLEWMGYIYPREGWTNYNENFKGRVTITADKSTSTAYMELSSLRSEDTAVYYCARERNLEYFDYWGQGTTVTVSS VL: DIVLTQSPASLAVSPGQRATITCKASQSVDFEGDNYMNWYQQKPGQPPKLLIYATSNLDSGVPARFSGSGSGTDFTLTINPVEAEDTANYYCQQSLEDPHTFGGGTKVEIK
0.00102 s⁻¹
8H8 (scFv, V domains shown, Combination mutant scFv) VH: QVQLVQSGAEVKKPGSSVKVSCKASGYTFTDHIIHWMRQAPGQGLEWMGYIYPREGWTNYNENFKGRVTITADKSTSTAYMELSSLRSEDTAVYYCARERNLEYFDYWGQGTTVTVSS VL: DIVLTQSPASLAVSPGQRATITCKASQSVDYEGFNYMNWYQQKPGQPPKLLIYATSNLDSGVPARFSGSGSGTDFTLTINPVEAEDTANYYCQQSLEDPHTFGGGTKVEIK
0.000927 s⁻¹

Exam item: Reported koff, binder 13B7 (scFv, V domains shown, Combination mutant scFv) VH: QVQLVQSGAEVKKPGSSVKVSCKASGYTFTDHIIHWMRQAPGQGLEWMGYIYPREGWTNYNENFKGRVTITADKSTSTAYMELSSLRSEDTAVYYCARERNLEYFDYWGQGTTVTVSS VL: DIVLTQSPASLAVSPGQRATITCKASQSVDYEGFNYMNWYQQKPGQPPKLLIYAASNLDSGVPARFSGSGSGTDFTLTINPVEAEDTANYYCQQSVEDPHTFGGGTKVEIK : ____
Marked response: 0.000252 s⁻¹

Exam item: Given the binder 16D10 scFv (scFv, V domains shown) VH: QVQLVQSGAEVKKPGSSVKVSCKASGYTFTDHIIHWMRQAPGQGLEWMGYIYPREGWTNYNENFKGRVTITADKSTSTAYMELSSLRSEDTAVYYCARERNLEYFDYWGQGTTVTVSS VL: DIVLTQSPASLAVSPGQRATITCKASQSVDYEGFNYMNWYQQKPGQPPKLLIYAASNLDSGVPARFSGSGSGTDFTLTINPVEAEDTANYYCQQSNEDPYTFGGGTKVEIK , what is its reported koff?
Marked response: 0.000465 s⁻¹
